# procedureText: Assay 8: Pharmacokinetics in plasma and lung in mouse
# Assay type: in vivo, BALB/c mice
# conditionSet: BALB/c, 10 µg/mouse, oral aspiration, 0.2 mg/mL, 50 uL, read-out: exposure in lung relative to exposure in plasma (lung AUC to plasma AUC ratio)
measureName: Kp

q: Consider the molecule CCc1cc(O)c(F)cc1-c1ccc2c(-c3nc4c([nH]3)CCN(C3CCN(C)CC3)C4)n[nH]c2c1 and give its recorded Kp.
a: ~55
